- assayTarget: 5-hydroxytryptamine receptor 7 (Homo sapiens, UniProt P34969)
- Sequence (P34969 whole entry): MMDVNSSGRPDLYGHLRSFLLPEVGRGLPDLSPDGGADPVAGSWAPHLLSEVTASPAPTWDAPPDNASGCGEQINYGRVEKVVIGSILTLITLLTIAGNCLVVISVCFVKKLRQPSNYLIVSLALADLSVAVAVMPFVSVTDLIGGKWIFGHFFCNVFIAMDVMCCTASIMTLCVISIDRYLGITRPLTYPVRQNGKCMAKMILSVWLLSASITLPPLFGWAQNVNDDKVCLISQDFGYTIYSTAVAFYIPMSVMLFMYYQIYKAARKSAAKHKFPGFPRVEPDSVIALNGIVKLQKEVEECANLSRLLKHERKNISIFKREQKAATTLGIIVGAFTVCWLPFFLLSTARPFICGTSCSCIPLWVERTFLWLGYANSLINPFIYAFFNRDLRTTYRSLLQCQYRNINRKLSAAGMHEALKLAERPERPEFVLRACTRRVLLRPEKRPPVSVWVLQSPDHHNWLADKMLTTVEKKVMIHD
- testDetails: Antagonist activity at human 5HT7A receptor expressed in human HeLa cells assessed as inhibition of 5-HT-induced cAMP accumulation by ELISA
readoutLabel: pIC50
Numbers only, as −log10 of the molar value.

{"columns": ["smilesInput", "assayTarget", "measured"],
 "data": [
  ["c1ccc(-c2ccccc2N2CCNCC2)cc1", "5-hydroxytryptamine receptor 7 (Homo sapiens, UniProt P34969)", 6.27]
]}

Value of measured pIC50 for the entry COc1ccc(-c2ccccc2N2CCNCC2)cc1 : 6.36

---

Exercise: state measured Activity for each of the compounds provided.
- assayTarget: Adrenergic receptor alpha-1 (Rattus norvegicus) (UniProt P15823+P23944+P43140)
- testDetails: Displacement of [3H]prazoin from rat cerebral cortex adrenergic alpha1 receptor at 100 nM
- Assay type: tissue-based
Answers are plain numbers, in %.

{"columns": ["smilesInput", "readoutLabel", "measured"],
 "data": [
  ["Cc1ccc(-c2cccc(N3CCNCC3)c2)cc1C", "Activity", 7]
]}

Dear colleague, could you send me Activity for each of the items below? Thanks.
1. Fc1ccc(-c2cccc(N3CCNCC3)c2)cc1
2. c1ccc(-c2cccc(N3CCNCC3)c2)nc1

Result:
1. 3
2. 27

Dear colleague, could you send me Activity for each of the items below? Thanks.
1. COc1cccc(OC)c1-c1cccc(N2CCNCC2)c1
2. c1ccc(-c2ccccc2N2CCNCC2)nc1
3. Fc1ccc(-c2ccccc2N2CCNCC2)cc1
4. COc1cccc(OC)c1-c1ccccc1N1CCNCC1
5. COc1ccc(-c2cccc(N3CCNCC3)c2)cc1

Result:
[3, 11, 14, 10, 29]

Dear colleague, could you send me Activity for each of the items below? Thanks.
1. c1ccc(-c2cccc(N3CCNCC3)c2)cc1
2. O=[N+]([O-])c1ccc(-c2cccc(N3CCNCC3)c2)cc1

Result:
1: 21; 2: 8
